target: Cytochrome P450 2C19 (Homo sapiens) (UniProt P33261); experiment: Cytochrome panel assay with activity outcomes; settings: recombinant CYP, pro-luciferin dealkylation, luminescence, p450-cyp2c19; series mostly up to 57.1 µM
Sequence (P33261 whole entry, looked up): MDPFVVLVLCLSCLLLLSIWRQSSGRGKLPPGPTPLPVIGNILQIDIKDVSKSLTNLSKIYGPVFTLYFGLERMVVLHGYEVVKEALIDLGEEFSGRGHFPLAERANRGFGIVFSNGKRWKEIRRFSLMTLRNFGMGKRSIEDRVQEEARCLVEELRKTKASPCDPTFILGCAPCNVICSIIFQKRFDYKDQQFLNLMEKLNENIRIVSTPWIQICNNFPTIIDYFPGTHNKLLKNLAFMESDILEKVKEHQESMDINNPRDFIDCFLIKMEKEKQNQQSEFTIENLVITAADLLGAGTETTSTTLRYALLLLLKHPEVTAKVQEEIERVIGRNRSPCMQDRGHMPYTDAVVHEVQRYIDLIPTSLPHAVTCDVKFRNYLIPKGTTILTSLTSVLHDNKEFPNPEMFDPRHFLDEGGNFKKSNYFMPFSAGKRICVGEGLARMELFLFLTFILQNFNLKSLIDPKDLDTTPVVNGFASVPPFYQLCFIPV
Hit rate of the full screen: of about 16,000 compounds, about 5,800 (36%) were called active. Roughly 23% stayed inconclusive and do not appear here. The call rests on the fitted dose curve; in most records, active means well fitted curve in the direction sought with a large enough effect; inconclusive means small, poorly fitted or top-dose-only effect, or effect the other way; inactive means no such curve, though single readings can be large or run the other way. The list shows a part of the results.
# valid calls are YES = active, NO = inactive; nothing else

INSERT INTO assay_data (compound, class) VALUES
  ('Cc1ccccc1-c1cncnc1NCc1ccccc1', 'YES'),
  ('COC(=O)[C@@]1(Cc2ccccc2)[C@H]2c3cc(C(=O)N4CCCC4)n(Cc4ccc(O)c(OC)c4)c3C[C@H]2CN1C(=O)c1ccccc1', 'YES'),
  ('COc1ccccc1CN1CCCC2(CCN(C(=O)c3ccncc3)CC2)C1', 'NO');

Incoming: What call does the record list for `Cc1noc(C)c1C(=O)N1CCC[C@@]2(CCN(Cc3ccccc3)C2)C1` ?
Outgoing: NO

Incoming: Name the outcome recorded for `CC(C)C[C@H](NC(=O)N1CCCCCC1)C(=O)N[C@H](Cc1cn(C)c2ccccc12)C(=O)N[C@H](Cc1ccccn1)C(=O)O` in the assay.
Outgoing: NO

Incoming: Could you please tell me the result logged for `CC1CCN(S(=O)(=O)c2ccc3c(c2)C(=NO)c2cc(S(=O)(=O)N4CCC(C)CC4)ccc2-3)CC1` in this assay?
Outgoing: YES

* * *

molecular target: Cytochrome P450 2C19 (Homo sapiens) (UniProt P33261); experiment: Cytochrome panel assay with activity outcomes; conditions: recombinant CYP, pro-luciferin dealkylation, luminescence, p450-cyp2c19; series mostly up to 57.1 µM
Screen size: about 16,000 compounds; about 5,800 (36%) were called active. Not shown: some 23% with an inconclusive outcome. The call rests on the fitted dose curve; in most records, active means well fitted curve in the direction sought with a large enough effect; inconclusive means small, poorly fitted or top-dose-only effect, or effect the other way; inactive means no such curve, though single readings can be large or run the other way. This is one part of the list.
Can you answer with just one of these options? active, inactive

These solved cases illustrate the format of a correct answer.
INSERT INTO results (molecule, measurement_target, class) VALUES
  ('COCCn1c(=O)c(-c2cn(C)c3ccccc23)nc2cnc(N3CCNCC3)nc21', 'Cytochrome P450 2C19 (Homo sapiens) (UniProt P33261)', 'inactive'),
  ('CCN(CC)C(=O)CSc1nc2ccc(NC(=O)CSc3nnc(COc4ccccc4C)n3C)cc2s1', 'Cytochrome P450 2C19 (Homo sapiens) (UniProt P33261)', 'active'),
  ('O=C(CCCn1c(=S)[nH]c2cc3c(cc2c1=O)OCO3)N1CCN(c2ccccc2)CC1', 'Cytochrome P450 2C19 (Homo sapiens) (UniProt P33261)', 'active'),
  ('OC(CCCN1CCCCC1)(c1ccccc1)c1ccccc1', 'Cytochrome P450 2C19 (Homo sapiens) (UniProt P33261)', 'inactive'),
  ('COc1ccc2[nH]cc(CCNc3nc(-c4ccc(N(C)C)cc4)nc4ccccc34)c2c1', 'Cytochrome P450 2C19 (Homo sapiens) (UniProt P33261)', 'active'),
  ('Cc1nn(-c2ccc(F)cc2)c(C)c1NS(=O)(=O)c1ccc2ccccc2c1', 'Cytochrome P450 2C19 (Homo sapiens) (UniProt P33261)', 'active');

Incoming: Identify the outcome logged in this assay for the molecule shown: CC(C)C(O)(C#CCN1CCCC1)c1ccccc1 (stereo not drawn)
Outgoing: active

Incoming: Tell me the assay call for `Cc1ccc(S(=O)(=O)ON=C2CCN(S(=O)(=O)c3ccccc3)CC2)cc1` please.
Outgoing: inactive
